Biological target: human recombinant Yes [a.a. 2–543 (end)] (Homo sapiens, UniProt P07947)
Construct: human recombinant Yes [a.a; 2–543 (end)]; purchased BPS Bioscience 40488
Sequence (P07947 2-543): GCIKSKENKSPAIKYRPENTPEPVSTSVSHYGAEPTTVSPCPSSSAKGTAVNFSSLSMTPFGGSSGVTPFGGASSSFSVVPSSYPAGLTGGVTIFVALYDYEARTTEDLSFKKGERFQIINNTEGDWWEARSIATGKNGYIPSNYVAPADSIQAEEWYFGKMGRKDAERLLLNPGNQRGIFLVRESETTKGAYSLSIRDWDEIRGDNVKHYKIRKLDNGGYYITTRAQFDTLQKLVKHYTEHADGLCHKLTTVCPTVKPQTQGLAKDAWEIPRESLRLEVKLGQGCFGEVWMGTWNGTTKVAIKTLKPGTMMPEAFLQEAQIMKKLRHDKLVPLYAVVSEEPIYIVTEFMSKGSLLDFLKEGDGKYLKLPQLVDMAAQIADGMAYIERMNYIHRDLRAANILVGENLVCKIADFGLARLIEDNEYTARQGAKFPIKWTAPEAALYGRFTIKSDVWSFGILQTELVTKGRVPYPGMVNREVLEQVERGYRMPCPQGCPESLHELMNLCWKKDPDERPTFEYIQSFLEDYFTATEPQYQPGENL
Assay: ADP-Glo kinase assay, inhibition rates of Yes phosphorylation activity (first and second screening)
Assay type: biochemical
Conditions: first screening; mean of n = 4 wells; 10 μmol L−1 compound
This listing pairs compounds with measured First screening IR (inhibition rate).
# number only, unit % dropped from output

As a guide, the following entries are already answered.
COMPOUND	First screening IR (inhibition rate) (%)
Cc1cccc(NC(=O)CNC(=O)c2cn3c(C)cccc3n2)c1C	3
CC(CN(C)Cc1ccccc1)Nc1nc(N)c2ccccc2n1 (centres unmarked)	-10
Clc1ccc(-c2csc(Nc3ccccc3)n2)s1	28
COc1ccc(-c2cc(C(=O)O)c3cnn(C(C)C)c3n2)cc1OC	9
O=C(CN1CCN(Cc2nc3scc(-c4ccc(F)cc4)c3c(=O)[nH]2)CC1)N1CCCCCC1	22
Nc1c2c(nc3sc4c(c13)CCCC4)-c1ccccc1CC2	-17
COc1ccc(Nc2nc(NCCN3CCOCC3)nc(Nc3ccc(OC)cc3)n2)cc1	6

From here, focus on the item given below.
### Prompt Look at this compound and give its reported First screening IR (inhibition rate). NC(=O)C1(CNC(=O)c2cc3c(cc2O)CCCC3)CCOCC1
### Response 17
